tested on: MS2 coat protein; assay: apparent KD of MS2 coat protein; designed switch direction (-1 OFF switch, 1 ON switch): 1; higher = weaker reporter binding; conditions: Eterna round: R95; input ligand: microRNA oligo, concentration not stated
Binary classification by apparent KD of MS2 coat protein, with 30 nM as an inclusive lower bound for satisfied; all other cases are not satisfied.

# example entries with known answers
| Biosequence | Discrete label |
| --- | --- |
| AGUGAACAUGAGGAUCACCCAUGUGAGAGGGAUGUAGGAUAUGUAAGGAAGUAAGAUGGAACAGAAGGACAAAGUG [JR_SS!_Sub067] (puzzle: Same State 1) | satisfied |
| AGUCCAGCGAAAGCUGGACAAAAGUAUGUACAUGAGGAUCACCCAUGUUCAUGUACAAGCUUUUUGCUCGUUUUAAA [JL mod - D95 - 19] (puzzle: Sensor for hsa-mir-208a) | satisfied |
| AGCAUACAUGAGGAUCACCCAUGUCAACUUAGUCGAGGAUAUGGGCAGCCGUGAGGCGAACCAGAAGGCGAAUUGA [Mat - Same State 1 - Mod of JL - D2] (puzzle: Same State 1) | not satisfied |
| ACGCAGCUGGGUGAGGAUAUCGGUGGUAAAACAUGAGGAUCACCCAUGUCCGAAGCUCGGACUUCCGAGAAGGCGCCCGGCUGCG [Soinraesar] (puzzle: Same State 2) | satisfied |
| AGUCCAGCCUGAGCUGGACAAAGGCAUGUACAUGAGGAUCACCCAUGUCAUGUACAAGCUUUUUGCUCGUCUUAAAA [Zipper 46 - 1] (puzzle: Sensor for hsa-mir-208a) | not satisfied |

(Q) Is reported apparent KD of MS2 coat protein greater than or equal to 30 nM here: AUGCAGCUACCACAGGAUAUACGUGGAUCGACAUGAGGAUCACCCAUGUAUAUCCUAAUAAUUGCGUAGAAGGGUGGUCAGCUGC [Tezaqutete] (puzzle: Same State 2)
(A) satisfied

(Q) Is reported apparent KD of MS2 coat protein greater than or equal to 30 nM here: UAGAGAGGAAGCGAGGAUAUCGUGUGAGGUACAUGAGGAUCACCCAUGUUUGAUGUUGAGAGAGGCGAGAAGGCGCAGGAGAUAA [JR_SS2_Sub085] (puzzle: Same State 2)
(A) satisfied

(Q) Is reported apparent KD of MS2 coat protein greater than or equal to 30 nM here: AUAUAACAUGAGGAUCACCCAUGUCUCUAAAGUCGAGGAUAUGGGCAAAUAAUAUAAGAACCAGAAGGCGAAUUAU [SS1 Teenbexe 4] (puzzle: Same State 1)
(A) satisfied

(Q) Is reported apparent KD of MS2 coat protein greater than or equal to 30 nM here: UGUUAACAUGAGGAUCACCCAUGUCAAAUGAAGCGAGGAUAUGGAAAGUAAUAAGAUGAACUAGAAGGUGUAGAUG [Altered State 1-21 - Jieux - Same State 1] (puzzle: Same State 1)
(A) satisfied

(Q) Is reported apparent KD of MS2 coat protein greater than or equal to 30 nM here: AAAAUUUCUGCACAGGAUAUGUAGUGUUUCACAUGAGGAUCACCCAUGUCAAAACCAGAGACUGUACAGAAGGGUGCGGUCGGAC [Onedxequ] (puzzle: Same State 2)
(A) not satisfied

(Q) Is reported apparent KD of MS2 coat protein greater than or equal to 30 nM here: UAUAAACAUGAGGAUCACCCAUGUAAUAAUAUGGGAGGAUAUCAGAAUGUAUUUAUUUAAUGAGAAGGCCUAAUAU [Mat - Same State 1 - Mod of Eli - D68] (puzzle: Same State 1)
(A) satisfied

(Q) Is reported apparent KD of MS2 coat protein greater than or equal to 30 nM here: GGUCCAGCCUGAGCUGGACUAUAGUAUGUACAUGAGGAUCACCCAUGUCAUGUAUAAGUAUGUUGUUUGUCUUGAAA [Sensorship 4 - Jieux - Sensor for hsa-mir-208a] (puzzle: Sensor for hsa-mir-208a)
(A) not satisfied

(Q) Is reported apparent KD of MS2 coat protein greater than or equal to 30 nM here: GGUGAGAGAGUCAAGGAUAUUAAAGGAGAGACAUGAGGAUCACCCAUGUAAGAGAGAGAGGAGAGUGAGAAGGUGAAGAGAGUGG [Altered State 2-25 - Jieux - Same State 2] (puzzle: Same State 2)
(A) not satisfied

(Q) Is reported apparent KD of MS2 coat protein greater than or equal to 30 nM here: GCAGGACAUGAGGAUCACCCAUGUUCAAAAUAUUGAGGAUAUGGAUACGGUAUAUCCGAACCAGAAGGCAACCUGC [SS1 Teenbexe 22] (puzzle: Same State 1)
(A) not satisfied

(Q) Is reported apparent KD of MS2 coat protein greater than or equal to 30 nM here: CGAUGAUACUUAGGAAGAAGAGUUGAAGUACAUGAGGAUCACCCAUGUCAGAGCUUUUUGCUCGUCAUGAACAGGAA [JR_SHM208a_Sub006] (puzzle: Sensor for hsa-mir-208a)
(A) not satisfied

(Q) Is reported apparent KD of MS2 coat protein greater than or equal to 30 nM here: GGAGAACAUGAGGAUCACCCAUGUGGAUGGGCGCUAGGAUAUGCGAGAGGGUGAAGAGAAGCAGAAGGAGUGGAUA [JR_SS1_Sub036] (puzzle: Same State 1)
(A) satisfied

(Q) Is reported apparent KD of MS2 coat protein greater than or equal to 30 nM here: AUUAAACAUGAGGAUCACCCAUGUCAACAAAGUCGAGGAUAUGGGCAUAUUAUCUUAUAACCAGAAGGCGAAUAAU [salish99_ss1_r3_086] (puzzle: Same State 1)
(A) satisfied

(Q) Is reported apparent KD of MS2 coat protein greater than or equal to 30 nM here: AUCAAAACAAGUUGCAGUGUUCGUCUUUCACAUGAGGAUCACCCAUGUAAUAGCCCAGCGGAAGCACUCGGGCCACC [Arzasola] (puzzle: Sensor for hsa-mir-208a)
(A) not satisfied

(Q) Is reported apparent KD of MS2 coat protein greater than or equal to 30 nM here: GCGCAGCCGGGUGAGGAUAUCGGUGGUAAAACAUGAGGAUCACCCAUGUCCGAAGCUCGGACUUCCGAGAAGGCGCCCAGCUGCA [Erisin] (puzzle: Same State 2)
(A) satisfied

(Q) Is reported apparent KD of MS2 coat protein greater than or equal to 30 nM here: GUAUAACAUGAGGAUCACCCAUGUCAACAAAGUCGAGGAUAUGGGCAUAGAUUAUAAGAACCAGAAGGCGAAUAUG [Mat - Same State 1 - Mod of UCT - D42] (puzzle: Same State 1)
(A) satisfied
